The compounds listed here are annotated with their growth.
# Tested on: A498 renal
# assayOverview: NCI-60 one-dose screen, 48 h (100 = growth as untreated, 0 = no growth, -100 = all killed)
# condition: 10 µM
This is part of a sample that, as a whole, favours compounds with a hit. Of some 83,000 tested, about 20% had one in any assay.
Number only, in %; omit the unit.

Measured growth of C[C@@H]1C[C@@]2(C)[C@@H](CC[C@@H]3[C@@H]2CC[C@]2(C)C(=O)CC[C@@H]32)CC1=O : 71.9

# growth (compound: CCCCCC1(CCBr)C(=O)NC(=O)NC1=O ) is 88.4

Lookup result for CC[C@@H]1[C@@H](C)O[C@@](O)([C@@H](C)[C@H](O)[C@H](C)[C@H]2OC(=O)/C=C/C=C/[C@H](C)[C@@H]([C@@H](C)[C@@H](O)[C@H](C)[C@@]3(O)C[C@@H](O[C@H]4C[C@@H](O)[C@H](O)C(C)O4)[C@H](CC)[C@@H](C)O3)OC(=O)/C=C/C=C/[C@@H]2C)C[C@H]1O[C@@H]1C[C@@H](O)[C@H](O)C(C)O1 (some centres not stated) ; measured growth: -97.5

COC(=O)[C@@H](C)C[C@H](Cc1ccccc1)NC(=O)c1nc([C@@H](C[C@H](C(C)C)N(C)C(=O)[C@@H](NC(=O)[C@H]2CCCCN2C)C(C)C)OC(C)=O)sc1C(C)C has a reported growth of -9.92

For reference, reported growth for Clc1ccc2nnnn2n1 stands at 78.7

For reference, reported growth for Cc1ccc(S(=O)(=O)C(Cl)(Cl)Cl)cc1 stands at 103

Value of measured growth for the entry COc1ccc2nc(NC(=O)COc3cc(/C=C\c4cc(OC)c(OC)c(OC)c4)ccc3OC)sc2c1 : -5.19

----------
# Test system: K-562 leukemia
# assayOverview: NCI-60 one-dose screen, 48 h (100 = growth as untreated, 0 = no growth, -100 = all killed)
# condition: 10 µM unless noted
# Procedure: Cells are grown in 96 well plates and exposed to the test compound for 48 hours. Compounds are tested at a single concentration, which is 10^-5 M for most compounds. The reported endpoint is percent growth (GI% or GIPRCNT), where numbers from 0 - 100% represent growth inhibition, and numbers from -100% - 0 represent cell death. For example, a value of 40 represents 60% growth inhibition. A value of 0 means no net growth occurred over the course of the experiment. […]
The panel holds about 83,000 compounds, 20% with a hit somewhere; the sample as a whole holds those more often.
One threshold, 20%, splits the recorded growth values: lower ones are true, equal or higher ones are false.

Field: example entries. Status: answers known.
// query In the record for O=C(O)CNC(=O)C(Cl)(Cl)Cl , is growth less than 20%?
// result false

// query Field: below-cutoff. Rule: recorded growth strictly less than 20%. Subject: COc1ccc(/C=C\c2cc(OC)c(OC)c(OC)c2)cc1OCC(=O)Nc1nc2ccc(OC(F)(F)F)cc2s1
// result false

// query Lab note: confirm whether the reported growth for this compound is below 20%, equality not counting. compound: CCCCCCCCCCCCCCCCCC1OC[C@@H](COC(=O)O[C@@H](C(=O)O[C@H]2C[C@@]3(O)[C@@H](OC(=O)c4ccccc4)[C@@H]4[C@]5(OC(C)=O)CO[C@@H]5C[C@H](O)[C@@]4(C)C(=O)[C@H](OC(C)=O)C(=C2C)C3(C)C)[C@@H](NC(=O)c2ccccc2)c2ccccc2)O1 (some centres not stated)
// result false

// query Problem: For the compound COc1ccc(C2=CC(c3ccc(OC)c(OC)c3)c3c(c4ccccc4oc3=O)O2)cc1OC (configuration not stated) , is growth under 20%?
// result true

// query Bench note: check whether CC(=O)C(c1c(O)c2ccccc2oc1=O)c1cc(=O)oc2c1ccc1ccccc12 (configuration not stated) shows growth below 20%
// result false

// query growth strictly < 20% for this compound? COc1cc(NC(C)CCCNC2CN3CCC2CC3)c2ncccc2c1 (configuration not stated)
// result false

Further cases:
// query Dear colleague, could you confirm whether growth of C/C(Cc1ccc(Cl)cc1)=C(\c1ccc(OCCN2CCOCC2)cc1)c1ccc(OC(=O)Cc2ccccc2)cc1 falls below 20%? Thanks.
// result false

// query I'd appreciate it if you could check whether COC(=O)CC12CC(NC(=O)c3csc([C@@H](C[C@H](C(C)C)N(C)C(=O)[C@@H](NC(=O)[C@H]4CCCCN4C)C(C)C)OC(C)=O)n3)(C1)C2 has growth smaller than 20%.
// result true

// query Below 20% on growth? Entry CC(C)(NC(=O)O[C@@H]1CN2CCC1CC2)c1csc(-c2ccc(F)cc2)n1
// result false

// query Hello, is growth of the following compound strictly smaller than 20%? CN1CC(=O)N(O)C1(C)c1cccnc1 (configuration not stated)
// result false

// query Is growth strictly under 20% for the entry N#CCCNc1ccccc1 ?
// result false

// query A record lists O=c1[nH]cc(N(CCCl)CCCl)c(=O)[nH]1 . Is its growth below 20%?
// result false

// query Hello, I'm reviewing records and need to know if growth of COc1cc2c(=O)n(C3CCCCCCC3)c3c4cc[nH]c4ncc3c2cc1OC is below 20%. Could you check?
// result true

// query Given the entry CO[C@H](C(=O)O)[C@@H]1Cc2cc3cc(OC4CC(OC5CC(O)C(O)C(C)O5)C(O)C(C)O4)c(C)c(O)c3c(O)c2C(=O)[C@H]1OC1CC(OC2CC(OC3CC(C)(O)C(O)C(C)O3)C(O)C(C)O2)C(O)C(C)O1 (some centres not stated) , would its reported growth be below 20%?
// result true

// query Just wondering, is growth of CCCCCC1(CCBr)C(=O)NC(=O)NC1=O below 20%?
// result false

// query Identify whether the compound O=C(CC1(O)C(=O)N(Cc2ccccc2)c2ccc(Cl)cc21)c1ccc(C(=O)NCC2CCC3(CC2)OOC2(CCCCC2)OO3)cc1 (configuration not stated) records growth below 20%.
// result true

// query growth under 20%? Item: CN(C)CCCOc1ccc2c(c1)c(C(=O)C(=O)NCCO)cn2Cc1ccccc1
// result false
